growth values, listed per item
tested on: RPMI-8226 leukemia; experiment: NCI-60 one-dose screen, 48 h (100 = growth as untreated, 0 = no growth, -100 = all killed); conditions: 10 µM unless noted
This is part of a sample that, as a whole, favours compounds with a hit. Of some 83,000 tested, about 20% had one in any assay. Active and inactive are the calls of the source. How the source made its calls: active means growth percent below 10; inactive means the rest.
MEASUREMENT LABEL: growth

compound="CCN1CCCC(N2c3ccccc3Sc3ccccc32)C1 (configuration not stated)" subject_of_test="RPMI-8226 leukemia" observed_result="95.5% (inactive)"
compound=CC(=O)NCNC(C)=O subject_of_test="RPMI-8226 leukemia" observed_result="97% (inactive)"
compound=O=S(=O)(O)c1ccc(O)c(C2CCCCC2)c1 subject_of_test="RPMI-8226 leukemia" observed_result="105% (inactive)"
compound=CN1C(=O)NC(c2ccc(Cl)cc2)(c2ccc(Cl)cc2)C1=O subject_of_test="RPMI-8226 leukemia" observed_result="84.2% (inactive)"
compound=Cc1ccc(C)c(CCO)c1 subject_of_test="RPMI-8226 leukemia" observed_result="138% (inactive)"
compound=O=C(O)CCCCCNC(=O)OCc1ccccc1 subject_of_test="RPMI-8226 leukemia" observed_result="81.5% (inactive)"
compound="CC(C)N1CC(=O)N2CSCC2C1=O (configuration not stated)" subject_of_test="RPMI-8226 leukemia" observed_result="109% (inactive)"
